Entries and their melting point values follow.

Solved entries:
>>> print(df.to_string())
                                   compound  quantity_name  recorded_value
0         CC(C(=O)O)=C1c2ccccc2C=Cc2ccccc21  melting point   235 to 236 °C
1  COC(c1ccccc1)C1CCCCCC(=Cc2ccccc2)C1=O (stereo not given)  melting point   136 to 139 °C
2  CN1CCN(c2cc(-c3cnc4c(c3)N(C(=O)Cc3cc(F)ccc3F)CCN4)ccn2)CC1  melting point        > 300 °C
3         CCc1nn(C2CCCC2)c2cc(C(=O)OC)ccc12  melting point   106 to 109 °C
4  COc1cccc(CNC(=O)c2nc3ccc(OCC(=O)c4ccccc4)cc3c(=O)[nH]2)c1  melting point   168 to 169 °C
5    c1ccc(CN2CCC(Nc3ccc4[nH]ncc4c3)CC2)cc1  melting point   150 to 152 °C

[Q] Quick one: melting point for C=C(C(=O)O)c1ccccc1OC ?
[A] 144 °C

[Q] Quick one: melting point for COc1cc(NC(=O)c2ccccc2Cl)ccc1C(=O)N1CCCC(OCCNS(=O)(=O)C(F)(F)F)c2cc(Cl)ccc21 (stereo not given) ?
[A] 140 to 142 °C

[Q] Quick one: melting point for COC(=O)CCCc1cc2cc(Cl)ccc2n1S(=O)(=O)c1ccc2c(c1)CCC(=O)N2 ?
[A] 198 to 205 °C

[Q] Quick one: melting point for O=C(CCCCOc1ccccc1O)C(F)(F)F ?
[A] 51 to 52 °C
